For each of the compounds below, state its DC50.
- Experimental Target: ERα in MCF7 cells (Homo sapiens (Human))
- Sequence (P03372 whole entry): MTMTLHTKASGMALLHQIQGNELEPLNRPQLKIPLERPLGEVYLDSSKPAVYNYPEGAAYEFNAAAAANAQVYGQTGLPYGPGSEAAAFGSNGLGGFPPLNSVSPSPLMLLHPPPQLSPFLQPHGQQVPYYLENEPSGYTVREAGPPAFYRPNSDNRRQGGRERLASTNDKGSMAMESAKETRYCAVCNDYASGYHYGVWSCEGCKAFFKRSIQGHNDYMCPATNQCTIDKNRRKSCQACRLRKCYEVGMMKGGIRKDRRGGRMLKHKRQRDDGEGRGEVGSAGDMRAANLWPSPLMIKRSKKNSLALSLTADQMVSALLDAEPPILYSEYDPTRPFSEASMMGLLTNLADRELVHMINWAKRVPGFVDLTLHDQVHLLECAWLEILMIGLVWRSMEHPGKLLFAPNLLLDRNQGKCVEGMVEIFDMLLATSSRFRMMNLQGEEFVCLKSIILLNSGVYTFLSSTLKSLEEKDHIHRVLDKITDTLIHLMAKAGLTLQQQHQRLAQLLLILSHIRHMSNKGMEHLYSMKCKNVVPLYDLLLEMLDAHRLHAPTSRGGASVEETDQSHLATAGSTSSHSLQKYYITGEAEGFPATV
- Method Summary: Test C: estrogen receptor degradation activity, ERα in cell western assay in MCF7 cells
- Assay type: cell-based
- Condition Set: 4 hours post compound addition, ERα in cell western, read-out: Degradation IC50
Kindly answer with a numeric value in nM, unit omitted.

The observed DC50 for `Oc1ccc2c(c1)SCCC(c1ccc(OC(F)(F)F)cc1)=C2c1ccc(O[C@H]2CCN(CCCF)C2)cc1` when tested with ERα in MCF7 cells (Homo sapiens (Human)) stands at 1

The measured DC50 that `Cc1ccc(C2=C(c3ccc(O[C@H]4CCN(CCCF)C4)cc3)c3cc(C)c(O)cc3OCC2)c(F)c1` showed for ERα in MCF7 cells (Homo sapiens (Human)) is 3

Entry `Oc1ccc2c(c1)CCCC(c1ccc(OC(F)(F)F)cc1F)=C2c1ccc(N[C@H]2CCN(CCCF)C2)cc1` under ERα in MCF7 cells (Homo sapiens (Human)) had DC50 of 0.2

Known value: ERα in MCF7 cells (Homo sapiens (Human)) DC50 of the compound `Oc1ccc2c(c1)SCC(c1ccc(Cl)nc1F)=C2c1ccc(O[C@H]2CCN(CCCF)C2)cc1` equals 0.2

Kindly note: ERα in MCF7 cells (Homo sapiens (Human)), `Oc1ccc2c(c1)C(c1ccc(O[C@H]3CCN(CCCF)C3)cc1)=C(c1cccc(F)c1Cl)CCS2` , DC50 value reported: 1

The compound `Cc1c(Cl)cccc1C1=C(c2ccc(O[C@H]3CCN(CCCF)C3)cc2)c2ccc(O)c(Cl)c2OCC1` on ERα in MCF7 cells (Homo sapiens (Human)): DC50 was 1

Measured DC50 (ERα in MCF7 cells (Homo sapiens (Human))), entry `[2H]C([2H])([2H])Oc1ccc(C2=C(c3ccc(O[C@H]4CCN(CCCF)C4)cc3)c3ccc(O)cc3SC2)c(F)c1` : 0.4

# lookup: `Oc1ccc(C2=C(c3ccc(O[C@H]4CCN(CCCF)C4)cc3)c3ccc(O)cc3OC2)cc1` on ERα in MCF7 cells (Homo sapiens (Human)), DC50 = 2

Record for `C[C@@H]1Cc2cc(C3=C(c4ccc(O[C@H]5CCN(CCCF)C5)cc4)c4ccc(O)cc4SCC3)ccc2O1` under target or system ERα in MCF7 cells (Homo sapiens (Human)): DC50 reported as 0.5

# value of DC50, ERα in MCF7 cells (Homo sapiens (Human)), item `Oc1ccc2c(c1)CCCC(c1ccc(Cl)c(F)c1)=C2c1cnc(O[C@H]2CCN(CCCF)C2)cn1` = 0.3

Reading of DC50 for `Oc1ccc2c(c1)SCCC(c1ccc(OCF)cc1)=C2c1ccc(O[C@H]2CCN(CCCF)C2)cc1` with ERα in MCF7 cells (Homo sapiens (Human)): 0.2

The compound `Oc1ccc2c(c1)SCCC(c1ccc3occc3c1)=C2c1ccc(O[C@H]2CCN(CCCF)C2)cc1` , when measured on ERα in MCF7 cells (Homo sapiens (Human)), yielded DC50 of 0.7

Kindly note: ERα in MCF7 cells (Homo sapiens (Human)), `Cc1ccc(C2=C(c3ccc(O[C@H]4CCN(CCCF)C4)nc3)c3ccc(O)cc3SCC2)c(Cl)c1` , DC50 value reported: 0.4

Summary: `CCOc1ccc(C2=C(c3ccc(O[C@H]4CCN(CCCF)C4)cc3)c3cc(F)c(O)cc3OCC2)c(C)c1` , ERα in MCF7 cells (Homo sapiens (Human)), DC50 = 0.2

Reading of DC50 for Cc1ccc(C2=C(c3ccc(O[C@H]4CCN(CCCF)C4)cc3)c3ccc(O)cc3[S+]([O-])C2)c(F)c1 (single isomer, unassigned) [Example 71] with ERα in MCF7 cells (Homo sapiens (Human)): 11

Reported ERα in MCF7 cells (Homo sapiens (Human)) DC50 for item `COc1ccc(C2=C(c3ccc(O[C@H]4CCN(CCCF)C4)cc3)c3ccc(O)cc3OCC2)c(Cl)c1` was 0.2

The observed DC50 for `Cc1ccc(C2=C(c3ccc(O[C@H]4CCN(CCCF)C4)nc3)c3ccc(O)cc3CCC2)c(F)c1` when tested with ERα in MCF7 cells (Homo sapiens (Human)) stands at 0.2
